Reported PBM E-score values for the following sequences.
# Target Entity: Hap1 (UniProt P0CE41)
# Sequence (P0CE41 whole entry): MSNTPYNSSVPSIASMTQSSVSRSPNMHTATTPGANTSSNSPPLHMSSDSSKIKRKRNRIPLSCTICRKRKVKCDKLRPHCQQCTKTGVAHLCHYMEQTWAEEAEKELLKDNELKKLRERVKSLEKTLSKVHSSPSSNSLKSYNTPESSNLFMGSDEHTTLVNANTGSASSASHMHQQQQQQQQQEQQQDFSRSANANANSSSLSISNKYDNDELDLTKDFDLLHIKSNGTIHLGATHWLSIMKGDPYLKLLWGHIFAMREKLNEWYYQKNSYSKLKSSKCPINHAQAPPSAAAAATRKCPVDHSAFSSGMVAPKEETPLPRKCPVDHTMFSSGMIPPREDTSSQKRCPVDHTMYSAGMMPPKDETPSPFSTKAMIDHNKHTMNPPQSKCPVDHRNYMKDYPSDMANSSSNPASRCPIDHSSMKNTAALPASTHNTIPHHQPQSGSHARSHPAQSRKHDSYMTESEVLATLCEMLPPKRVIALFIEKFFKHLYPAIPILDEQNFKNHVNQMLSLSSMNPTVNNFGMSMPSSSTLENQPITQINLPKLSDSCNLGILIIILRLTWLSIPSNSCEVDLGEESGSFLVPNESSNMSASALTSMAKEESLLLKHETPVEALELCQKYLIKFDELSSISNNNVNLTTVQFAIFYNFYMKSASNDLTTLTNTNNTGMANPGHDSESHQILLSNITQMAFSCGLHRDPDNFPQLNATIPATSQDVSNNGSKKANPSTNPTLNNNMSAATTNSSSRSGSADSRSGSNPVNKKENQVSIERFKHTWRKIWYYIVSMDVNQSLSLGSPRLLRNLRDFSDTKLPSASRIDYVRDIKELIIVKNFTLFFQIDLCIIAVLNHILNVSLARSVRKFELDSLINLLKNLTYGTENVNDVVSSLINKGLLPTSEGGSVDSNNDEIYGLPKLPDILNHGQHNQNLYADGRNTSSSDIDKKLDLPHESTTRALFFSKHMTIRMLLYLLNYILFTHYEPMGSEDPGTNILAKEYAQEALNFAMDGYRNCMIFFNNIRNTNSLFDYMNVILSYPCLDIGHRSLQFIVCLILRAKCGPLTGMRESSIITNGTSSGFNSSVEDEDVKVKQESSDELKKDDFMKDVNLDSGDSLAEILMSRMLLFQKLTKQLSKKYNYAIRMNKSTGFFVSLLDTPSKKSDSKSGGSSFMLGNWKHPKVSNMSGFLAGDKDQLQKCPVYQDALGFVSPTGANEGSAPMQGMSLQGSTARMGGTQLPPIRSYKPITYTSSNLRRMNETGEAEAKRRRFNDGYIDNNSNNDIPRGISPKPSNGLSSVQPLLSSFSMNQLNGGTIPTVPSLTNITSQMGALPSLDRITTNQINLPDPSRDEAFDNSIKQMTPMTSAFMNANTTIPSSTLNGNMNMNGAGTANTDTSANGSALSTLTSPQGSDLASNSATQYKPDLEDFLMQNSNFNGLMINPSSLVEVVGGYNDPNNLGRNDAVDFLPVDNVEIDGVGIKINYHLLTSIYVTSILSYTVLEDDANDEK
# Assay Summary: PBM E-score (8-mer binding enrichment) (E-score (-0.5 to 0.5)); higher = stronger / more preferred TF binding
# Measurement Context: protein concentration: 200 nM; construct: GST-DNA-binding domain
Over roughly 33,000 sequences, “E-score (-0.5 to 0.5)” has its median near -0.053; the highest 2% begin near 0.37. The sample as a whole holds a higher share of the highest values than the screen did.
The response must contain the number and no unit.

Consider the following illustrative entries.
ATCTCCGG; 0.483
ACCCGTAC; 0.0493
CGCGGAGA; 0.397
ACGGCCCT; -0.0855
GCCCGGGA; 0.316

Reported PBM E-score for GTCGGGGA : what is it?
0.301

Another sequence to look at: ATCCGCAG
0.208

Consider next the sequence AATGGGCC in the same way.
0.0191
